Measured values drawn from ChEMBL document CHEMBL5113397 for this set.

selectivity ratio values by entry
Assay: Selectivity index, ratio of CC50 for cytotoxicity against African green monkey Vero E6 cells to EC50 for antiviral activity against SARS-CoV-2 Wuhan-Hu-1 infected African green monkey Vero E6 cells
Format: toxicity, cell-based, Vero C1008
Conditions: read-out: Ratio CC50/EC50

| TEST_SMILES | selectivity ratio |
| --- | --- |
| COc1ccccc1NC(=O)[C@]12CC[C@@H](C)[C@H](C)[C@H]1C1=CC[C@@H]3[C@@]4(C)CC[C@H](O[C@@H]5O[C@H](CO)[C@@H](O[C@@H]6O[C@@H](C)[C@H](O)[C@@H](O)[C@H]6O)[C@H](O)[C@H]5O[C@@H]5O[C@@H](C)[C@H](O)[C@@H](O)[C@H]5O)C(C)(C)[C@@H]4CC[C@@]3(C)[C@]1(C)CC2 | > 42 |
| COc1cccc(OC)c1NC(=O)[C@]12CC[C@@H](C)[C@H](C)[C@H]1C1=CC[C@@H]3[C@@]4(C)CC[C@H](O[C@@H]5O[C@H](CO)[C@@H](O[C@@H]6O[C@@H](C)[C@H](O)[C@@H](O)[C@H]6O)[C@H](O)[C@H]5O[C@@H]5O[C@@H](C)[C@H](O)[C@@H](O)[C@H]5O)C(C)(C)[C@@H]4CC[C@@]3(C)[C@]1(C)CC2 | > 48.8 |
